- System: TNF α production by U937 cells
- assaySummary: Test on macrophage activity inhibition (antagonist test): LPS antagonistic activity on TNFα production by U937 cells
- Type: cell-based
- conditionInfo: U-937; in the presence of 10 ng/ml of LPS; human monocytic U937 cells; 6 hours; TNFα by ELISA; concentration suppressing TNFα to 50% of standard production amount; read-out: IC50(nM), LPS antagonistic activities of the compounds on TNF α production by U937 cells
parameterMeasured: IC50
The reply should consist of the numeric value with the unit placed after it.

Below are worked cases with known answers.
{"columns": ["compound", "result"],
 "data": [
  ["CCCCCCCCCCCCCC(=O)O[C@H](CCCCCCCCCCC)CCO[C@H]1[C@H](OP(=O)(O)O)[C@@H](CO)OC(OC[C@H]2O[C@H](C(=O)O)[C@H](NC(=O)C[C@H](O)CCCCCCCCCCC)[C@@H](OCC[C@H](O)CCCCCCCCCCC)[C@@H]2O)[C@@H]1NC(C)=O (stereo partly shown) [Example 1]", "11 nM"],
  ["CCCCCCCCCCCCO[C@H](CCCCCCCCCCC)CCO[C@@H]1[C@@H](NC(C)=O)[C@H](OC[C@H]2O[C@H](C(=O)O)[C@H](NC(=O)C[C@H](O)CCCCCCCCCCC)[C@@H](OCC[C@H](O)CCCCCCCCCCC)[C@@H]2O)O[C@H](CO)[C@H]1OP(=O)(O)O [Example 4]", "11 nM"],
  ["CCCCCCCCCCCCCC(=O)O[C@H](CCCCCCCCCCC)CCO[C@@H]1[C@@H](NC(C)=O)[C@H](OC[C@H]2O[C@H](C(=O)O)[C@H](NC(=O)C[C@H](O)CCCCCCCCCCC)[C@@H](OCC[C@H](O)CCCCCCCCCCC)[C@@H]2O)O[C@H](COC)[C@H]1OP(=O)(O)O [Example 2]", "0.61 nM"]
]}

-- ask Which IC50 value belongs to CCCCCCCCCCCCCC(=O)O[C@H](CCCCCCCCCCC)CCO[C@@H]1[C@@H](NC(C)=O)[C@H](OC[C@H]2O[C@H](C(=O)O)[C@H](NC(=O)C[C@H](O)CCCCCCCCCCC)[C@@H](OCC[C@H](O)CCCCCCCCCCC)[C@@H]2O)O[C@H](CF)[C@H]1OP(=O)(O)O [Example 3] ?
-- reply 1.2 nM
